System: MIA PaCa2 cells expressing KRAS-G12C
Assay: Cell proliferation assay (Cell Titer Glo), MIA PaCa2
Type: cell-based
Conditions: Homo sapiens, MIA PaCa-2, 72 h, ATP content (Cell Titer Glo)
VALUE KIND: GI50 (nM)

Consider the worked cases shown below.
C=CC(=O)N1CCN2c3nc(=O)n(-c4c(C)ccnc4C(C)C)c4c(F)c(-c5c(O)cccc5F)c(F)c(c34)OC[C@H]2C1 (atropisomer, axis not shown) [Compound 15A] = 4520
C=CC(=O)N1CCN(c2ncnc3c(F)c(-c4c(O)cccc4F)c(Cl)cc23)CC1 [ARS-1620] = 1210

(1) C=CC(=O)N1CCN2c3nc(=O)n(-c4c(C)ccnc4C(C)C)c4cc(-c5c(N)c(Cl)cc(Cl)c5F)c(F)c(c34)OC[C@H]2C1 (atropisomer, axis not shown) [Compound 11A]
(2) C=CC(=O)N1CCN2c3nc(=O)n(-c4c(C)ccnc4C(C)C)c4cc(-c5c(O)cccc5F)c(F)c(c34)OC[C@H]2C1 [Compound 2A]
(3) C=CC(=O)N1CCN2c3nc(=O)n(-c4c(C)ccnc4C(C)C)c4cc(-c5c(O)ccc(F)c5F)c(F)c(c34)OC[C@H]2C1 (atropisomer, axis not shown) [Compound 4A]
(4) C=CC(=O)N1CCN(c2nc(=O)n(-c3c(C)ccnc3C(C)C)c3c(F)c(-c4c(O)cccc4F)ncc23)[C@@H](C)C1 [Compound 13]
Rank the items in ascending order with respect to GI50. Returns: the labels arranged in the requested order.
2, 3, 1, 4
(2: 48 nM, 3: 324 nM, 1: 685 nM, 4: 1270 nM)
